- System: SK-MEL-5 melanoma
- procedure_details: NCI tumour cell line growth inhibition, 48 h
Respond with label 1 for TGI values of 20 µM and above, label 0 for values below.

Past entries and their recorded results:
>>> discrete_label("CN1C2CCC1CC(=CCOC(c1ccc(F)cc1)c1ccc(F)cc1)C2")
"label 1"
>>> discrete_label("CCN1CCC(O)(c2ccc(OC)cc2)C(C(=O)c2ccc(OC)cc2)C1 (centres undefined)")
"label 1"
>>> discrete_label("CC(C)=CC[C@]12CCN[C@H]1N(S(=O)(=O)c1ccccc1)c1ccccc12")
"label 1"
>>> discrete_label("Cn1cc(NC(=O)Nc2cc(C(=O)Nc3cc(C(=O)Nc4ccc(S(=O)(=O)O)c5cc(S(=O)(=O)O)ccc45)n(C)c3)n(C)c2)cc1C(=O)Nc1cc(C(=O)Nc2ccc(S(=O)(=O)O)c3cc(S(=O)(=O)O)ccc23)n(C)c1")
"label 1"
>>> discrete_label("COC1(OC)C(N(C)C)=C(Cl)C(=O)/C1=C/C=O")
"label 1"
>>> discrete_label("COC(=O)C1=C(O)C(C(=O)OC)[C@]2(O)[C@H](C(=O)OC)[C@H]1C[C@@H](c1ccc(C(F)(F)F)cc1)[C@H]2C(=O)OC (some centres undefined)")
"label 0"
>>> discrete_label("N#Cc1c(N)n(-c2cccc(C(=O)O)c2)c(=O)c2cc([N+](=O)[O-])ccc12")
"label 1"
>>> discrete_label("Cc1c(N=Nc2ccc(Cl)cc2)c(-c2ccccc2)n(C2OC(CO)C(O)C(O)C2O)c(=S)c1C#N (centres undefined)")
"label 1"

Shift focus to the following entry.
Is reported TGI greater than or equal to 20 µM here: CN1CCN(C(=S)N2CCN(C)CC2)CC1
label 1
